Let's look at some compounds and their measured pIC50.
System: TLR7/8
Experiment: TLR7/8 Inhibition Assay IC50 in human PBMC's, cytokine release after CL075 stimulation (Luminex)
Assay type: cell-based
Conditions: human PBMC's from one donor, CL075 2 μg/mL, 24 hours, eight concentrations 0.01-100 μM; read-out: IC50 levels for test compounds, IFNα
pIC50: −log10 of the molar value.
reported.property: pIC50

[[record]]
compound = "COc1ccc2c(c1)CCN(CCNC(=O)C1CCCN(c3ccc(C#N)cc3F)C1)C2 (centres unmarked) [Compound 25]"
study_system = "TLR7/8"
reported_result = "≥ 5.00"

[[record]]
compound = "COc1ccc2c(c1)CCN(CCNC(=O)C1CCCN(c3ccc(C#N)cc3)C1)C2 (centres unmarked) [Compound 24]"
study_system = "TLR7/8"
reported_result = "≥ 5.00"

[[record]]
compound = "COc1ccc2c(c1)CCN(CCNC(=O)C1CCN(c3ccc(C(F)(F)F)cn3)CC1)C2 [Compound 22]"
study_system = "TLR7/8"
reported_result = "≥ 5.00"

[[record]]
compound = "COc1ccc2c(c1)CCN(CCCNC(=O)C1CCN(c3ccc(C#N)cc3)CC1)C2 [Compound 26]"
study_system = "TLR7/8"
reported_result = "≥ 5.00"

[[record]]
compound = "N#Cc1ccc(N2CCCC(C(=O)NCCN3CCc4ccccc43)C2)c(F)c1 (centres unmarked) [Compound 15]"
study_system = "TLR7/8"
reported_result = "< 4.70"


Taken from patent US10988457B2.
